# credit: PubChem BioAssay (EPA / NIEHS)

Assay: IUF_NPC1a_proliferation_area_72hr: Leibniz Research Institute for Environmental Medicine (IUF) 72-hour Neural Progenitor Cell Proliferation Area Assay (NPC1a) (AID 2284208)
Activity calls are given as the source filed them. Rule for the calls: active = hit-call score of the fitted dose curve at least 0.9, where 1 is the maximum; inactive = score below 0.9.
measured.attribute: AC50

Before answering, review these 6 worked examples.
compound	AC50
CC[C@H](C)[C@H]1O[C@]2(C=C[C@@H]1C)C[C@@H]1C[C@@H](C/C=C(\C)[C@@H](O[C@H]3C[C@H](OC)[C@@H](O[C@H]4C[C@H](OC)[C@@H](O)[C@H](C)O4)[C@H](C)O3)[C@@H](C)/C=C/C=C3\CO[C@@H]4[C@H](O)C(C)=C[C@@H](C(=O)O1)[C@]34O)O2 (tested in a mixture with another compound)	5.05 µM (active)
CNC(=O)CSP(=S)(OC)OC	inactive
O=C(O)COc1ccc(Cl)cc1Cl	inactive
O=C(O)C(F)(F)C(F)(F)C(F)(F)C(F)(F)C(F)(F)C(F)(F)C(F)(F)F	inactive
CC1(c2ccc(Oc3ccccc3)cc2)OC(=O)N(Nc2ccccc2)C1=O (configuration not stated)	39.6 µM (active)
O=S(=O)(O)C(F)(F)C(F)(F)C(F)(F)C(F)(F)C(F)(F)C(F)(F)C(F)(F)C(F)(F)F	inactive

Consider the record given below.
Reported AC50 of COP(=S)(OC)Oc1ccc([N+](=O)[O-])cc1 : inactive

* * *

Quick reference: AC50 of the listed items.
Molecular target: human CYP1A2, CYP1A2 (gene 1544)
Assay: NVS_ADME_hCYP1A2: NovaScreen (NVS) CYP450-related Enzyme Activity (ADME) Assay for human CYP1A2 (AID 2283102);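 note: fluorescence from turnover of a fluorogenic substrate by recombinant insect-cell CYP1A2; potency for inhibition since loss of fluorescence marks reduced CYP1A2 activity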
Active and inactive are the calls of the source. How the source made its calls: active means hit-call score of the fitted dose curve at least 0.9, where 1 is the maximum; inconclusive means response in the unintended direction; inactive means score below 0.9.

Before answering, review these 3 worked examples.
COP(=S)(OC)Oc1ccc(SC)c(C)c1 2.76 µM (active)
COc1nn(CSP(=S)(OC)OC)c(=O)s1 3.25 µM (active)
Oc1cc(Cl)ccc1Oc1ccc(Cl)cc1Cl 9.33 µM (active)

The molecule O=C(Nc1ccccc1)Nc1cnns1 , when measured on human CYP1A2, CYP1A2 (gene 1544), yielded AC50 of 3.55 µM (active)

* * *

Read-out: Fatty acid synthase (Homo sapiens) (UniProt P49327)
Sequence (P49327 whole entry, looked up): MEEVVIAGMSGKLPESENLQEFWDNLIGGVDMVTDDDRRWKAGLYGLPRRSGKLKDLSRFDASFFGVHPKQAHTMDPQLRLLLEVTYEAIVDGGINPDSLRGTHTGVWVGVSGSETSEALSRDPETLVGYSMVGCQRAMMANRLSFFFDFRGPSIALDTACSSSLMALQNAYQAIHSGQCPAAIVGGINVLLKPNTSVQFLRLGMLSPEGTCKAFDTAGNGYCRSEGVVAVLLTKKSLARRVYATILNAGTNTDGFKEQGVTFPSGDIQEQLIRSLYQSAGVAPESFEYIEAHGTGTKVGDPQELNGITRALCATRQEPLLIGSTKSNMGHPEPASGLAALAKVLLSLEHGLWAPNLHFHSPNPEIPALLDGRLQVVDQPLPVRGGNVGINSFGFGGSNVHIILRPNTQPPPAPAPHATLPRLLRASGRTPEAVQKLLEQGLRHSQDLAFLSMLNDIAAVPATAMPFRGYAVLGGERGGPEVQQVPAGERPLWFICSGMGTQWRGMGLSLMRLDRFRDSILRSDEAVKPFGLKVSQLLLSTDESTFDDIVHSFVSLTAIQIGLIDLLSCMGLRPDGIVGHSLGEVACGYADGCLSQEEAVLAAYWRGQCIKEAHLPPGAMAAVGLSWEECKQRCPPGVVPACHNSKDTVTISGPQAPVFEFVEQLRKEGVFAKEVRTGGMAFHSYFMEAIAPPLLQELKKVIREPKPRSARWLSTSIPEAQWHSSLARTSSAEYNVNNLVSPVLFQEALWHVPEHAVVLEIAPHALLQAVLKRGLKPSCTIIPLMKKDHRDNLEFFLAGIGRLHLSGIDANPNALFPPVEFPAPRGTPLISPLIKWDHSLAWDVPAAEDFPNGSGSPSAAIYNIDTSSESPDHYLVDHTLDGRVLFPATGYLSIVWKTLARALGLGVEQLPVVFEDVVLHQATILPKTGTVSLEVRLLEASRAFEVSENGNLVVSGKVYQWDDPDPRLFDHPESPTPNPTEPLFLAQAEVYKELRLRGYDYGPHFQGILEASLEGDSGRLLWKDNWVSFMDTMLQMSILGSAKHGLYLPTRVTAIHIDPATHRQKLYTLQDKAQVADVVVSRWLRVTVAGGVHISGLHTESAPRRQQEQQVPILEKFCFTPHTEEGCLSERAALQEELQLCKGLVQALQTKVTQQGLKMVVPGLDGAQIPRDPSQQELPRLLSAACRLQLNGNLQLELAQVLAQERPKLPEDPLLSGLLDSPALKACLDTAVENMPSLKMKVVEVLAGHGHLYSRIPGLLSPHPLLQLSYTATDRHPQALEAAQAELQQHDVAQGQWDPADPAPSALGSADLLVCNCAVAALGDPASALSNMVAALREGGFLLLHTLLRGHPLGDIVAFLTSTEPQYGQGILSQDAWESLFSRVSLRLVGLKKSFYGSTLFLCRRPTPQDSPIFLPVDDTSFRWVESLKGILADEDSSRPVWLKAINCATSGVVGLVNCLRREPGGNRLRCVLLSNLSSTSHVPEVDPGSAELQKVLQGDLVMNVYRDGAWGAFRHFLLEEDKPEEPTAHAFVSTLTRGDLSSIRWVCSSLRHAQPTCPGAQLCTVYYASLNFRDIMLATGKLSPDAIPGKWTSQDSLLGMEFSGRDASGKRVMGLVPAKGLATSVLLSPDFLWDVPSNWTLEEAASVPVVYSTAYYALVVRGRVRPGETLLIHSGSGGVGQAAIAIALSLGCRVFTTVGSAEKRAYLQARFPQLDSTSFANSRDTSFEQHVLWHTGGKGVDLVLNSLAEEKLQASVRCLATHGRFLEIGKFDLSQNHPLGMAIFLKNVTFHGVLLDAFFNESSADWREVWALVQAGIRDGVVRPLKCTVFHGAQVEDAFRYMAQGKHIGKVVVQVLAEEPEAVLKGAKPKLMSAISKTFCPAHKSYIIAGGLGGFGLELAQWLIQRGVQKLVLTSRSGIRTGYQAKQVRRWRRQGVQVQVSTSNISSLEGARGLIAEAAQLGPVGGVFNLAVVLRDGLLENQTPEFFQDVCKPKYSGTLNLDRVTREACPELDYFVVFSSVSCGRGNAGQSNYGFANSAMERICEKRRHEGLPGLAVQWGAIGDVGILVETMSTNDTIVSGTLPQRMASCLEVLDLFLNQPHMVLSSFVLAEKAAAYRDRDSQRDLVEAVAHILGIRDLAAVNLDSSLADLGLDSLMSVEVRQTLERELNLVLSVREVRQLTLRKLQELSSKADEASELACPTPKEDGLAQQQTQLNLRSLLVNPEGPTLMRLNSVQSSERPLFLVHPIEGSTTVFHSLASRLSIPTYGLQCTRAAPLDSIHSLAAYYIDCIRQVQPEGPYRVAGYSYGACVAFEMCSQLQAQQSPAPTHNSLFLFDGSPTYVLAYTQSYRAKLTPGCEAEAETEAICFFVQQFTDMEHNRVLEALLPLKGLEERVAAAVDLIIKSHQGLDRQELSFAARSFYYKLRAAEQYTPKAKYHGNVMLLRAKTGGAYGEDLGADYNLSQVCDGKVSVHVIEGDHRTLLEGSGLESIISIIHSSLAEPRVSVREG
Assay: LTEA_HepaRG_FASN: Life Technologies and Expression Analysis (LTEA) Assay for Fatty Acid Synthase (FASN) using HepaRG (AID 2283448)
Settings: mRNA level, 48 h; actives raise or lower the signal
Activity calls are given as the source filed them. The calls were made as follows: active = hit-call score of the fitted dose curve at least 0.9, where 1 is the maximum; inactive = score below 0.9.
Outcomes you can answer with include only these: TRUE = active, FALSE = inactive

QUERY: Please indicate how the test categorized CCC(C)(NC(=O)c1cc(Cl)c(C)c(Cl)c1)C(=O)CCl (configuration not stated) .
RESULT: FALSE

QUERY: Please indicate how the test categorized CCN(CC)C(=O)SCc1ccc(Cl)cc1 .
RESULT: FALSE

QUERY: Please indicate how the test categorized C#CCN1C(=O)COc2cc(F)c(N3C(=O)C4=C(CCCC4)C3=O)cc21 .
RESULT: FALSE

QUERY: Please indicate how the test categorized C[C@H]1[C@H](c2ccc(Cl)cc2)SC(=O)N1C(=O)NC1CCCCC1 .
RESULT: FALSE

QUERY: Please indicate how the test categorized CC1(C)C(C=C(Cl)Cl)C1C(=O)OC(C#N)c1ccc(F)c(Oc2ccccc2)c1 (configuration not stated) .
RESULT: FALSE
